system.tested: LCAT (Homo sapiens)
Sequence (P04180 25-440): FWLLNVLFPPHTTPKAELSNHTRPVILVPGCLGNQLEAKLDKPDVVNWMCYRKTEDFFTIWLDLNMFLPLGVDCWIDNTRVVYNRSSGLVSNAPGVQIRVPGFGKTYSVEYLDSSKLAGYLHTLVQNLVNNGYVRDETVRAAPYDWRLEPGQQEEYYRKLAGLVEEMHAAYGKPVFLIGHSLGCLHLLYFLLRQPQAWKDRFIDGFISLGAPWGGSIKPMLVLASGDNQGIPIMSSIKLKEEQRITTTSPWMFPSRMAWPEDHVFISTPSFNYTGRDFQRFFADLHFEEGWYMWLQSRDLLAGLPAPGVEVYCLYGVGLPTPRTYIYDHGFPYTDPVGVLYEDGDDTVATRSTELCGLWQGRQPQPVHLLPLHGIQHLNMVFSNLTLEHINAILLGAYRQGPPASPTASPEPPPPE
assay.notes: MUP based phospholipase assay
Format: biochemical
Set-up: 6x histidine-tag (C); made in house; host or cells: 293T cells (ATCC CRL-3216)
protocol.conditions: kcat divided by Km
observable: phospholipase efficiency (µM⁻¹ h⁻¹)

The examples below pair each entry with its known result.
>>> number("Cc1ccc([C@@H]2O[C@H](CO)[C@@H](O)[C@H](O)[C@H]2O)cc1Cc1ccc(-c2ccc(F)cc2)s1 [canagliflozin]")
34.63
>>> number("OC[C@H]1O[C@@](CO)(O[C@H]2O[C@H](CO)[C@@H](O)[C@H](O)[C@H]2O)[C@@H](O)[C@@H]1O [sucrose]")
22.43
>>> number("O=C1c2c(O)cc(O)cc2OC(c2ccc(O)c(O)c2)C1O (stereo not drawn) [taxifolin]")
19.60
>>> number("O=c1cc(-c2ccc(O)c(O)c2)oc2cc(O)cc(O)c12 [luteolin]")
17.11

[A] COC(=O)Nc1nc2ccc(C(=O)c3ccccc3)cc2[nH]1 [mebendazole]
[B] CCOc1ccc(Cc2cc([C@@H]3O[C@H](CO)[C@@H](O)[C@H](O)[C@H]3O)ccc2Cl)cc1 [dapagliflozin]
Task: Between the entries labeled A and B , whose measured phospholipase efficiency is lower? // output: label of the selected item
Output: A
(A: 6.28 µM⁻¹ h⁻¹, B: 12.82 µM⁻¹ h⁻¹)
